# subject-of-test: T1, IL-11 (Cat. 12225-HNCE, Sino Biological Inc.) (UniProt P20809 22-199, limits assumed)
# T1 sequence (looked up): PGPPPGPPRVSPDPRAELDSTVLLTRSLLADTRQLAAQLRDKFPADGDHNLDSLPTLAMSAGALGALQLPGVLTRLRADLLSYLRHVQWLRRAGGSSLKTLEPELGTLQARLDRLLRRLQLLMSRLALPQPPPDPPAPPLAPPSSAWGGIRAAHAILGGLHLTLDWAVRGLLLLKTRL
# measurement-description: competition ELISA, IL-11/IL-11Rα/GP130 complex
measured-metric: IC50

Query :: Quick check: IC50 of hz8C8-VHm1 + hz8C8-VLm3 (antibody, human IgG1, kappa, V domains shown, human IgG1 constant regions) VH: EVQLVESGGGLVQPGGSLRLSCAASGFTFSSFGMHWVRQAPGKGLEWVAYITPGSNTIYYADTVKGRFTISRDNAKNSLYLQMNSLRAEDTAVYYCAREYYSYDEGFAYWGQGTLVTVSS VL: EIVLTQSPATLSLSPGERATLSCSVSSLISSNYLHWYQQKPGQAPRLLIYRTSNLASGIPARFSGSGSGTDFTLTISSLEPEDFAVYYCQQGVDVPFTFGQGTKLEIKR ?
Result :: 0.943 µg/mL

Query :: For the binder hz8C8-VHm1 + hz8C8-VL (antibody, human IgG1, kappa, V domains shown, human IgG1 constant regions) VH: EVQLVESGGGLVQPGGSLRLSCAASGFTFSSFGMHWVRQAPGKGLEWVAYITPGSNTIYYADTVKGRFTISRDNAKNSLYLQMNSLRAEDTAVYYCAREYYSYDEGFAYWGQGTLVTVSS VL: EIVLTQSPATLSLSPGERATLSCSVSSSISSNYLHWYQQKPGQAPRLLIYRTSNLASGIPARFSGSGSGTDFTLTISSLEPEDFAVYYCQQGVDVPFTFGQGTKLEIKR , what IC50 is on record?
Result :: 2.09 µg/mL

Query :: Sample hz8C8-VHm1 + hz8C8-VLm7-m2 (antibody, human IgG1, kappa, V domains shown, human IgG1 constant regions) VH: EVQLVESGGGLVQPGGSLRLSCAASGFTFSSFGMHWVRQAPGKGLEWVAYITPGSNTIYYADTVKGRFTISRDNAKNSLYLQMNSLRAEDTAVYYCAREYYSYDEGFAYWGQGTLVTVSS VL: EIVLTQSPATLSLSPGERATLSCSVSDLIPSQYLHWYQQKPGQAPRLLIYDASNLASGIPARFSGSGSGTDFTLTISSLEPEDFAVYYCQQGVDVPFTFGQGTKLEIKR — what was its IC50?
Result :: 0.74 µg/mL
